target: penicillin-binding protein 2a (PBP2a) (Staphylococcus aureus (MRSA)) (UniProt P07944); test: relative IC50: competition with biotinylated ampicillin for labelling of pure PBP2a, streptavidin-HRP blot
Sequence (P07944 23-670): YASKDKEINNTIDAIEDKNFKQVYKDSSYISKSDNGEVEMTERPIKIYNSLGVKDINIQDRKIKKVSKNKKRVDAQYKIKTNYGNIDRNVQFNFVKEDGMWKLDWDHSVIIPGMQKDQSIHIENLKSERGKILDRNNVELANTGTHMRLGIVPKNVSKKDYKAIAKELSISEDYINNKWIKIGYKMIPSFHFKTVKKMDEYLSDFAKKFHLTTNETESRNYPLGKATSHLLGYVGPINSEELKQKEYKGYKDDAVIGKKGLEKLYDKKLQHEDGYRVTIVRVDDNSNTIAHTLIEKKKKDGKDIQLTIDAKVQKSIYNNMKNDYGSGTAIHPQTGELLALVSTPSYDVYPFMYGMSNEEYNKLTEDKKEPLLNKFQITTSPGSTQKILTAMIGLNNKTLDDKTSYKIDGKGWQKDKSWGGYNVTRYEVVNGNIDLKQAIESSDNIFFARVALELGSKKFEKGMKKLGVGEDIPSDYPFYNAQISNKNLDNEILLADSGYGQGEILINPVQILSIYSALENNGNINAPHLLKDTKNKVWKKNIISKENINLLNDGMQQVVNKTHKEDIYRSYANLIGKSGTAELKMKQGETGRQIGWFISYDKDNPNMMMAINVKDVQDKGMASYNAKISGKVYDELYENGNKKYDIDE
READOUT_LABEL: IC50

Request: For the substance LRNSNC(COOH)IRHFF (residues 2-12 of SEQ ID NO: 5) (peptide) , what IC50 is on record?
Result: > 35 mM

###

target: penicillin-binding protein 2a (PBP2a) (Staphylococcus aureus (MRSA)); test: relative IC50: conjugate pre-incubated with pure PBP2a 15 min at 37 C, then competition with biotinylated ampicillin, SDS-PAGE and streptavidin-HRP blot
READOUT_LABEL: IC50 (mM)
State just the number; it will be interpreted in mM.

Request: For the substance LRNSNC(pen)IRHFF (residues 2-12 of SEQ ID NO: 5) (peptide) , what IC50 is on record?
Result: 7
